Tested on: Wolbachia pipientis
method-notes: Anti-Wolbachia Cell-Based Screen
Format: functional
Set-up: scale not given: in the data most compounds retested in dose-response had high values
stated-conditions: 5 µM
In all, about 48,000 compounds went through this assay and about 13,000 (27%) showed an effect of 50% or more. The list shows a part of the results.
Hi there, I'd appreciate the recorded Percent Effect for every entry that follows.
Record the value in %, omitting the unit from your answer.

Requested read-out Percent Effect, target or system Wolbachia pipientis, entry COc1ccc(-c2noc(CNC(C)Cn3cccn3)n2)c(OC)c1 (stereo not given)
-1.941

Another molecule: O=C(O)C1CCCCN1C(=O)c1cccc(C(F)(F)F)c1 (stereo not given)
1.382

Another molecule: O=C(O)C(F)(F)F.O=S(=O)(C1CC1)N1CCO[C@@H]2CN(Cc3cccs3)C[C@@H]2C1
3.839

Another molecule: O=C(c1ccncc1)N1CCC(Oc2cccc(C(F)(F)F)c2)CC1
-12.2

Another molecule: COc1ccc2c(c1)nc1n2[C@@H](CN(C2CCC2)C2CCC2)COC1
-7.437

Another molecule: Cc1noc(NCc2ccc(F)cc2F)n1
23.53

Another molecule: CC(=O)N1CCO[C@@H]2CN(S(=O)(=O)c3ccccc3F)C[C@@H]2C1
-1.494

Another molecule: COCCN1CC(O)CN(C(=O)c2cccc(C(F)(F)F)c2)CC1=O (stereo not given)
96.14

Another molecule: CC(=O)N1CCO[C@@H]2CN(S(=O)(=O)C3CC3)C[C@@H]2C1
90.6

Another molecule: CC(C)c1nnc2n1CCN(C(=O)c1cccc(C(F)(F)F)c1)C2
-7.984

---

Test system: Wolbachia pipientis
method-notes: Anti-Wolbachia Cell-Based Screen
Type: functional
Set-up: scale not given: in the data most compounds retested in dose-response had high values
stated-conditions: 5 µM
About 13,000 (27%) of roughly 48,000 compounds showed an effect of 50% or more. This is one part of the list.
Hi there, I'd appreciate the recorded Percent Effect for every entry that follows.
Record the value in %, omitting the unit from your answer.

Query: Percent Effect; subject: Cc1noc([C@H]2C[C@H]3OCC[C@H]3N(C3CCC3)C2)n1.O=C(O)C(F)(F)F
110.4

Another compound: CN1C[C@@H]2CN(C(=O)C3CCOC3)C[C@@H]2C1=O (stereo not given in full)
0.8988

Another compound: O=C(c1cscn1)N1CC[C@@H]2[C@@H]1CCN2c1ccccn1
-2.894

Another compound: Cc1noc([C@@H]2C[C@H]3OCC[C@H]3N(CC3CCCC3)C2)n1.O=C(O)C(F)(F)F
-10.41

Another compound: CS(=O)(=O)N1C[C@@H]2CCN(C(=O)c3cscn3)[C@@H]2C1
118.3

Another compound: Cc1noc([C@H]2C[C@H]3OCC[C@H]3N(S(C)(=O)=O)C2)n1
101.7

Another compound: Cc1noc([C@H]2C[C@H]3OCC[C@H]3N(Cc3scnc3C)C2)n1.O=C(O)C(F)(F)F.O=C(O)C(F)(F)F
-0.107

Another compound: CSC1(CNc2ccc(Br)cn2)CCOCC1
-9.614

Another compound: CCS(=O)(=O)N1CCC2(CN(C(=O)c3cscn3)C2)C1
7.529

Another compound: O=C(O)c1ccn(-c2ccccc2NS(=O)(=O)c2ccccc2)n1
2.8

Another compound: Cc1noc([C@@H]2C[C@H]3OCC[C@H]3N(S(C)(=O)=O)C2)n1
0.371

Another compound: CS(=O)(=O)N1C[C@@H]2CCN(C(=O)c3ccco3)[C@@H]2C1
-6.962

Another compound: CC(CN1CCCC1=O)NC(=O)c1cc(-c2cccc(Cl)c2)no1 (stereo not given)
-44.82

Another compound: CC(C)C(=O)N1CCN(C(=O)c2cscn2)[C@H]2CS(=O)(=O)C[C@H]21
2.64

Another compound: O=C(NC1CCCCC1)N1C[C@@H]2OCCN(C(=O)c3ccco3)[C@@H]2C1
2.504

Another compound: Cc1noc([C@H]2C[C@H]3OCC[C@H]3N(S(=O)(=O)C3CC3)C2)n1
5.212

Another compound: O=C(C1CCOC1)N1C[C@@H]2CCN(C(=O)c3cscn3)[C@@H]2C1 (stereo not given in full)
85.3

Another compound: O=C(c1ccsc1)N1C[C@@H]2CCN(C(=O)c3cscn3)[C@@H]2C1
98.94

Another compound: CCc1nc2c(N3CCC4(CC3)CNC(=O)C4)ncnc2o1
4.745

Another compound: CCS(=O)(=O)N1C[C@H](c2nc(C)no2)C[C@H]2OCC[C@H]21
131.3
